Target: Isocitrate dehydrogenase [NADP], mitochondrial (Homo sapiens, UniProt P48735, R172K)
Sequence (P48735 40-452 R172K limits assumed): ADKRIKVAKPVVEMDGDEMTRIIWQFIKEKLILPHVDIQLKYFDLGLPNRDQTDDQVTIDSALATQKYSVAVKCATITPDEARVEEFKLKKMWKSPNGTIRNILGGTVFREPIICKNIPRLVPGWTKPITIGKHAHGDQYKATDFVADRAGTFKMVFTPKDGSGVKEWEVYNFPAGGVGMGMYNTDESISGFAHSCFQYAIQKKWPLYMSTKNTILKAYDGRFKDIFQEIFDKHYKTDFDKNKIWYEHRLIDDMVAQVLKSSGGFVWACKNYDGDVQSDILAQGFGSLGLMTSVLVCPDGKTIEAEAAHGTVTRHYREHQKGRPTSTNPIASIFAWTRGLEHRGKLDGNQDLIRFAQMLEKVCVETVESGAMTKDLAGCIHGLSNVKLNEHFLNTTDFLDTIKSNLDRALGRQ
Test: Inhibition of IDH2 R172K mutant (unknown origin)
Result type: pIC50
Note on pIC50: it is the negative log10 of concentration, concentration in mol/L.

The compound listed as COc1nc(N[C@@H](C)c2cc3cc(Cl)ccc3[nH]c2=O)ncc1C#N has a reported pIC50 of 4.47

* * *

Tested on: MDR1 (P-gp)
Assay: Efflux ratio of apparent permeability from basolateral side to apical side over apical side to basolateral side in MDCK cells harboring MDR1 (unknown origin)
Format: ADME, cell-based, Canis lupus familiaris
Details: dog
Result type: efflux ratio
Could you keep your reply to the number by itself?

Per the record, COc1nc(N[C@@H](C)c2cc3cc(Cl)ccc3[nH]c2=O)ncc1C#N has efflux ratio of 1.19
